Entries and their measured protein stability index follow.
B1: DFFB (parent)
chain: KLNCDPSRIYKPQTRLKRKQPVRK

Variants of: B1
method_summary: protein stability index of a GFP-peptide fusion (GPS, HEK-293T) (PSI 1-6); higher = more stable;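 further: lentivirally expressed fusions sorted by FACS into six bins by GFP to DsRed ratio, PSI derived from sequencing read proportions per bin multiplied by bin number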
stated_conditions: c terminus: a fixed tail appended
observation_type: protein stability index

[[record]]
variant_name = "L16M"
observed_value = 3.23

[[record]]
variant_name = "R18Q"
observed_value = 3.4

[[record]]
variant_name = "C4W"
observed_value = 3.56

[[record]]
variant_name = "Q20N"
observed_value = 3.66

[[record]]
variant_name = "K17V"
observed_value = 3.25

[[record]]
variant_name = "R23V"
observed_value = 3.25

[[record]]
variant_name = "K1N"
observed_value = 3.47

[[record]]
variant_name = "R8V"
observed_value = 2.94

[[record]]
variant_name = "T14V"
observed_value = 3.51

[[record]]
variant_name = "T14R"
observed_value = 3.52

[[record]]
variant_name = "D5E"
observed_value = 2.9

[[record]]
variant_name = "V22T"
observed_value = 3.64

[[record]]
variant_name = "Y10P"
observed_value = 3.72

[[record]]
variant_name = "R18D"
observed_value = 3.34

[[record]]
variant_name = "P6F"
observed_value = 2.92

[[record]]
variant_name = "K1D"
observed_value = 4.23

[[record]]
variant_name = "K19Y"
observed_value = 2.89

[[record]]
variant_name = "I9H"
observed_value = 3.31

[[record]]
variant_name = "L2W"
observed_value = 2.73

[[record]]
variant_name = "N3D"
observed_value = 4.07

[[record]]
variant_name = "K1W"
observed_value = 3.65

[[record]]
variant_name = "K19F"
observed_value = 1.86

[[record]]
variant_name = "C4D"
observed_value = 3.88

[[record]]
variant_name = "K24C"
observed_value = 2.96

[[record]]
variant_name = "Y10G"
observed_value = 2.28

[[record]]
variant_name = "N3W"
observed_value = 3.21

[[record]]
variant_name = "R23A"
observed_value = 3.39

[[record]]
variant_name = "P6S"
observed_value = 3.71

[[record]]
variant_name = "D5H"
observed_value = 3.48

[[record]]
variant_name = "L2P"
observed_value = 4.57

[[record]]
variant_name = "R18I"
observed_value = 3.32

[[record]]
variant_name = "I9A"
observed_value = 3.57

[[record]]
variant_name = "K1P"
observed_value = 3.54

[[record]]
variant_name = "K11N"
observed_value = 2.98

[[record]]
variant_name = "P6R"
observed_value = 3.7

[[record]]
variant_name = "P12W"
observed_value = 3.21

[[record]]
variant_name = "R23Y"
observed_value = 3.48

[[record]]
variant_name = "P12Y"
observed_value = 2.79

[[record]]
variant_name = "S7C"
observed_value = 3.52

[[record]]
variant_name = "Q13H"
observed_value = 4.35

[[record]]
variant_name = "R8M"
observed_value = 3.23

[[record]]
variant_name = "L2T"
observed_value = 4.12

[[record]]
variant_name = "R18E"
observed_value = 4.21

[[record]]
variant_name = "L2I"
observed_value = 3.2

[[record]]
variant_name = "P21K"
observed_value = 2.75

[[record]]
variant_name = "R18Y"
observed_value = 3.05

